Listing of recorded EC50 by entry.
Biological target: T1, mouse BCMA with a His tag (ACROBiosystems, Catalog No.: BCA-M52H3) (mouse)
T1 construct: Bought His-tagged recombinant protein
T1 chain: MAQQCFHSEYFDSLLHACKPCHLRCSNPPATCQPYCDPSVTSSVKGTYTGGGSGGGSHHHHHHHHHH
Test: ELISA, plate-coated mouse BCMA-His
Description: The recombinantly expressed antibodies were used to assess binding activity to BCMA of different species origins by conventional ELISA according to the known art. […] The ability for antibodies of the present disclosure to bind human BCMA was measured with an ELISA assay. […] The absorbance at 450 nm is read on a microplate reader. The half maximal effective concentration (EC50) is calculated using GraphPad Prism 6 software. […]
experimental readout: EC50 (µg/mL)

binder	quantity unit	numeric readout
SCT-Aa03(m/m) (antibody, V domains shown, Full IgG format: mouse IgG1 heavy chain constant region, mouse kappa light chain constant region) VH: EVKLLQSGGGLVQPGGSLKLSCAASGIDFSRYWMSWVRRAPGKGLEWIGEINPDSSTINYAPSLKDKFIISRDNAKNTLYLQMSKVRSEDTALYYCASFYYDYDHAMDYWGQGTSVTVSS VL: DIVMTQSQKFMSTSVGDRFSVTCKASQNVGTNVAWYQQKPGQSPKALIYSASYRFSGVPDRFTGSGSGTDFTLTISNVQSEDLAEYFCQQYNSYPFTFGSGTKLEIK	µg/mL	0.0791
SCT-Aa05(m/m) (antibody, V domains shown, Full IgG format: mouse IgG1 heavy chain constant region, mouse kappa light chain constant region) VH: EVKLLQSGGGLVQPGGSLKLSCAASGIDFSRYWMSWVRRAPGKGLEWIGEINPDSSTINYAPSLKDKFIISRDNAKNTLYLQMSKVRSEDTGLYYCASLYYDYEREYGMDYWGQGTSVTVSS VL: DIVMTQSQKFMSTSVGDRVSVTCKASQNVGTNVAWYQQKPGQSPKALIYSASYRFSGVPDRFTGSGSGTDFTLTISNVQSEDLAEYFCQQYNSYPYTFGGGTKLEIK	µg/mL	0.0522
